System: PfSIP2 AP2 domain 1 (GST-tagged)
method notes: gcPBM binding intensity (ln(normalized median fluorescence intensity)); higher = stronger DNA binding
The full ranking holds about 25,000 sequences; the median of “ln(normalized median fluorescence intensity)” is about 7.1, and the highest 2% start at about 10. This is one part of a sample in which the highest values are shown more often than they occur.
property: gcPBM binding intensity (ln)
Answers are plain numbers.

Please review the entries below; each comes with its answer.
Endpoint output: gcPBM binding intensity (ln) of CTATGCATTTATAGTGCATGTAAAATATAAGATAAT [TGCATGCA_site71] . Value? 10.3

For the sequence shown here, TATATTTTTATGTGTGTGCACAAAATAACAAAATAT [GTGCAC_site9596] , give the reported gcPBM binding intensity (ln). 9.36

Quick check: gcPBM binding intensity (ln) of AAATAAATAAATAGAGTGCATATATATATATATTTT ? 8.61

Name the recorded gcPBM binding intensity (ln) for TGTAGTCTGGAGAAACGTACATAGTATCTGGTAGCT [XGTACX_site2538] . 6.84

Suppose we examine the sequence ATATATTTTTATGTAGTGCATTTAAATAATAAATGC ; what gcPBM binding intensity (ln) value has been reported? 8.42

Give the measured gcPBM binding intensity (ln) of TTATAGCCTGTGAAGAGTACATTTTTATTTTTTATT [XGTACX_site4105] . 6.85

Okay, here is my list. What is gcPBM binding intensity (ln) for each of these?
1. TATTTTTGGTTATGTGTGCACTATGAACAACAAAAT
2. CATTTTTCTATATGTGCATGTAAGATAAGAATAATT [TGCATGCA_site107]

10.5
8.22

Origin of values: the supplement of paper PMC11417369
